# System: SJRH30 (Rhabdomyosarcoma)
# experimental.details: Bliss excess, mean over the matrix (fraction); higher = more synergy;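 also: after 72 h of two-drug dosing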
observed.property: Bliss excess

CC1(C)CCC(CN2CCN(c3ccc(C(=O)NS(=O)(=O)c4ccc(NCC5CCOCC5)c([N+](=O)[O-])c4)c(Oc4cnc5[nH]ccc5c4)c3)CC2)=C(c2ccc(Cl)cc2)C1 [Venetoclax] + Cc1cc2ncnn2cc1Nc1ncc2c(n1)n(C1CCOCC1)c(=O)n2C [AZD7648] (first compound max 1 µM, 7x7, partner max 10 µM)    0.0112
Cc1c2c(nn1C)CSCc1cc(n(C)n1)CSc1cc(c3ccccc3c1)OCCCc1c(C(=O)O)n(C)c3c-2c(Cl)ccc13 [AZD5991] + C[C@@H](Nc1cc(F)cc(F)c1)c1cc(C(=O)N(C)C)cc2c(=O)cc(N3CCOCC3)oc12 [AZD8186] (first compound max 1 µM, 7x7, partner max 3 µM)    -0.0138
COc1cccc(OCCCN)c1-c1cc(Nc2cnc(C#N)cn2)n[nH]1 [Prexasertib] + C=CCn1c(=O)c2cnc(Nc3ccc(N4CCN(C)CC4)cc3)nc2n1-c1cccc(C(C)(C)O)n1 [AZD1775] (first compound max 1 µM, partner max 1 µM)    0.108
CC1(C)CCC(CN2CCN(c3ccc(C(=O)NS(=O)(=O)c4ccc(NCC5CCOCC5)c([N+](=O)[O-])c4)c(Oc4cnc5[nH]ccc5c4)c3)CC2)=C(c2ccc(Cl)cc2)C1 [Venetoclax] + C[C@@H](Nc1cc(F)cc(F)c1)c1cc(C(=O)N(C)C)cc2c(=O)cc(N3CCOCC3)oc12 [AZD8186] (first compound max 1 µM, 7x7, partner max 3 µM)    -0.0248
CN(C)CCCOc1ccc(-c2ccc3ncc4c(c3c2)n(C2CCOCC2)c(=O)n4C)cn1 [AZD0156] + C[C@@H]1COCCN1C2=NC(=NC(=C2)C3(CC3)[S@](=N)(=O)C)C4=C5C=CNC5=NC=C4 [AZD6738] (first compound max 1 µM, 7x7, partner max 10 µM)    0.0408

// next entry
// Input: CC1(C)CCC(CN2CCN(c3ccc(C(=O)NS(=O)(=O)c4ccc(NCC5CCOCC5)c([N+](=O)[O-])c4)c(Oc4cnc5[nH]ccc5c4)c3)CC2)=C(c2ccc(Cl)cc2)C1 [Venetoclax] + COc1cc(Nc2ncc3c(n2)-c2ccc(Cl)cc2C(c2c(F)cccc2OC)=NC3)ccc1C(=O)O [Alisertib] (first compound max 1 µM, 7x7, partner max 10 µM) . Output its Bliss excess only.
0.0315

* * *

# System: PANC-02-03 (Pancreatic Carcinoma)
# experimental.details: Bliss excess, mean over the matrix (fraction); higher = more synergy
observed.property: Bliss excess
Enter the number alone.

Recall and state the measured Bliss excess for C[C@@H](c1ccc2nccn2c1)n1nnc2ncc(-c3cnn(C)c3)nc21 [Savolitinib] + Cc1c2c(nn1C)CSCc1cc(n(C)n1)CSc1cc(c3ccccc3c1)OCCCc1c(C(=O)O)n(C)c3c-2c(Cl)ccc13 [AZD5991] (first compound max 1 µM, 7x7, partner max 1 µM) .
-0.0374

Answer with the recorded Bliss excess of CCc1c2c(nc3ccc(O)cc13)-c1cc3c(c(=O)n1C2)COC(=O)[C@]3(O)CC [SN-38] + O=C(c1cc(Cc2n[nH]c(=O)c3ccccc23)ccc1F)N1CCN(C(=O)C2CC2)CC1 [Olaparib] (first compound max 0.3 µM, 7x7, partner max 10 µM) only.
0.0609

Give the value of Bliss excess reported for the following: NC1(C(=O)N[C@@H](CCO)c2ccc(Cl)cc2)CCN(c2ncnc3[nH]ccc23)CC1 [Capivasertib] + CC(=O)c1c(C)c2cnc(Nc3ccc(N4CCNCC4)cn3)nc2n(C2CCCC2)c1=O [Palbociclib] (first compound max 10 µM, 7x7, partner max 10 µM)
-0.0351

Answer with the recorded Bliss excess for the molecule listed here: C[C@@H](Oc1cc(-c2cnn(C3CCNCC3)c2)cnc1N)c1c(Cl)ccc(F)c1Cl [Crizotinib] + CC1=C(C(=CC=C1)Cl)NC(=O)C2=CN=C(S2)NC3=CC(=NC(=N3)C)N4CCN(CC4)CCO [Dasatinib] (first compound max 10 µM, 7x7, partner max 2 µM)
-0.0328

Could you please provide reported Bliss excess for COc1nnc2ccc(N3CCC(c4ccc(OCCN5CCN(C)C(=O)[C@H]5C)cc4)CC3)nn12 [AZD5153] + Cc1c2c(nn1C)CSCc1cc(n(C)n1)CSc1cc(c3ccccc3c1)OCCCc1c(C(=O)O)n(C)c3c-2c(Cl)ccc13 [AZD5991] (first compound max 1 µM, 7x7, partner max 1 µM) ? Thanks!
-0.0493

Specify reported Bliss excess for the molecule shown: COc1cc2ncnc(Nc3ccc(F)c(Cl)c3)c2cc1OCCCN1CCOCC1 [Gefitinib] + CC(C)n1c(=O)n(C)c2cnc3cc(F)c(-c4ccc(OCCCN5CCCCC5)nc4)cc3c21 [AZD1390] (first compound max 10 µM, 7x7, partner max 0.3 µM)
-0.0431

Cited source: the supplement of paper PMC11061612
